- protocol_notes: ATG_AP_1_CIS: Attagene CIS-FACTORIAL HepG2 Assay for human Activator Protein 1 (AP-1) (AID 2282931)
- condition_set: HepG2 Attagene cis-factorial AP-1 reporter mRNA; actives raise or lower the signal
Activity calls are given as the source filed them. The calls were made as follows: active = hit-call score of the fitted dose curve at least 0.9, where 1 is the maximum; inactive = score below 0.9.
Lab note: assign the record to one of active, inactive

Worked cases, answers included:
{"columns": ["line_notation", "assigned_class"],
 "data": [
  ["CCC/C=C/CO", "inactive"],
  ["O=C1C=CC(=O)N1c1ccc(Cc2ccc(N3C(=O)C=CC3=O)cc2)cc1", "inactive"]
]}

// next entry
# input What call does the record list for O=C(O)C(F)(F)OC(F)(F)C(F)(F)OC(F)(F)C(F)(F)OC(F)(F)F ?
# output active

----------
- Read-out: Collagen III, COL3A1 (gene 1281)
- protocol_notes: BSK_MyoF_CollagenIII: BioMAP Diversity Plus: MyoF Assay for Collagen III Biomarker Activity (AID 2284239)
- condition_set: primary human lung fibroblasts
Active and inactive are the calls of the source. The calls were made as follows: active = hit-call score of the fitted dose curve at least 0.9, where 1 is the maximum; inactive = score below 0.9.
Lab note: assign the record to one of true for active, false for inactive

Worked cases, answers included:
{"columns": ["line_notation", "assigned_class"],
 "data": [
  ["O=C(Cl)C(F)(F)C(F)(F)C(F)(F)C(F)(F)C(F)(F)C(F)(F)C(F)(F)F", "false"],
  ["CCN(CC)c1ccc(C=O)c(O)c1", "false"],
  ["NC(=O)C(F)(F)C(F)(F)C(F)(F)F", "false"],
  ["CO[Si](C)(CCC(F)(F)C(F)(F)C(F)(F)C(F)(F)C(F)(F)C(F)(F)F)OC", "false"]
]}

# input What call does the record list for Cc1ccc(O)c(-n2nc3ccccc3n2)c1 ?
# output false

# input What call does the record list for O=C1c2c(O)ccc(Nc3ccc(CCO)cc3)c2C(=O)c2c([N+](=O)[O-])ccc(O)c21 ?
# output true

----------
- protocol_notes: ATG_NRF2_ARE_CIS: Attagene CIS-FACTORIAL HepG2 Assay for human Nuclear Factor Erythroid 2 Related Factor 2 (NFR2) response to Antioxidant Response Elements (ARE) (AID 2282992)
- condition_set: HepG2 Attagene ARE/NRF2 reporter, transcription factor activity; actives raise or lower the signal
Active and inactive are the calls of the source. The calls were made as follows: active = hit-call score of the fitted dose curve at least 0.9, where 1 is the maximum; inactive = score below 0.9.
Lab note: assign the record to one of true = active, false = inactive

Worked cases, answers included:
{"columns": ["molecule", "assigned_class"],
 "data": [
  ["O=C1C=CC(=O)N1c1ccc(Cc2ccc(N3C(=O)C=CC3=O)cc2)cc1", "true"],
  ["O=C1c2ccccc2C(=O)c2c(Cl)cccc21", "false"],
  ["COc1ccccc1C=O", "false"]
]}

# input What call does the record list for CCOC(=O)CCC(C)=O ?
# output false

# input What call does the record list for O=c1[nH]cccc1O ?
# output false

----------
- Read-out: Secreted IgG (sIgG), gene 3500
- protocol_notes: BSK_BT_sIgG: BioMAP Diversity Plus: BT Assay for Secreted IgG (sIgG) Biomarker Activity (AID 2284226)
- condition_set: primary human B cells with PBMC
Calls of active or inactive are those of the source. How the source made its calls: active means hit-call score of the fitted dose curve at least 0.9, where 1 is the maximum; inactive means score below 0.9.
Lab note: assign the record to one of Y for active, N for inactive

# input What call does the record list for O=S(=O)(Cl)C(F)(F)C(F)(F)C(F)(F)C(F)(F)C(F)(F)C(F)(F)C(F)(F)C(F)(F)F ?
# output N

These entries and their values trace back to PubChem BioAssay (EPA / NIEHS).
